assay_explanation: gradient 5% acetonitrile 3 min, to 50% in 2 min, to 85% in 15 min, held 3 min, 100 µL/min
settings: column: Zorbax Extend-C18 2.1 x 50 mm; eluents: water / acetonitrile, 0.1% formic acid
observation_type: RP-LC retention time (s)

{"compound": "CCOc1ccccc1CN1CCc2nc(N3CCN(c4ccccn4)CC3)ncc2C1", "RP-LC retention time / s": 583}

(a) CC(C)c1ccc(-n2nc(N3CCN(C(=O)Cc4cccs4)CC3)ccc2=O)cc1
(b) Cc1ccc(-c2csc(NC(=O)COc3c(C)ccc(C)c3C)n2)cc1
Exam item: Of the two listed items, a and b , which carries the larger RP-LC retention time figure? Output the label that corresponds to your choice.
Marked response: b
(b: 1320 s, a: 898 s)

(P) Cc1cc(C)c(S(=O)(=O)Nc2cccc(C(F)(F)F)c2)c(C)c1
(Q) CCCNC(=O)CCC1CCN(c2cc(NCCC)ncn2)CC1
Exam item: Please indicate which entry, P or Q , has the lower recorded RP-LC retention time value. Which one? Tell me its label.
Marked response: Q
(Q: 606 s, P: 1100 s)

###

assay_explanation: gradient 5% acetonitrile 3 min, to 50% in 2 min, to 85% in 15 min, held 3 min, 100 µL/min
settings: column: Zorbax Extend-C18 2.1 x 50 mm; eluents: water / acetonitrile, 0.1% formic acid
observation_type: RP-LC retention time (s)

{"molecule": "O=C(CNS(=O)(=O)c1ccc2c(c1)OCCO2)N1CCOC(c2ccccc2)C1 (centres undefined)", "measurement_units": "s", "RP-LC retention time": 775}
{"molecule": "O=C(Cc1ccsc1)Nc1cccn2c(C3CCC3)nnc12", "measurement_units": "s", "RP-LC retention time": 745}
{"molecule": "O=C(COc1ccccc1)N1[C@H]2CC[C@@H]1c1cnc(-c3ccccc3)nc1C2", "measurement_units": "s", "RP-LC retention time": 952}

(I) O=C(Cc1csc(-c2ccccc2)n1)Nc1nc(-c2ccc(Cl)cc2)cs1
(II) Cc1cnc(C2CC2)n1CCNC(=O)C1CC=CC1
(III) Cn1ncc2c(N3CCSCC3)nc(C(=O)N3CCN(c4ccccc4)CC3)nc21
Exam item: Please rank these molecules by RP-LC retention time in descending order. Please reply with the labels ordered as requested. Many thanks.
Marked response: I, III, II

(a) CCc1noc(NC(C)=O)c1-c1ccc(C)c(S(=O)(=O)Nc2ccc(Br)c(C)c2)c1
(b) COc1cccc(CCC(=O)N2C[C@@H]3C[C@H](NS(C)(=O)=O)[C@H]2C3)c1
Exam item: # return whichever of a and b has the smaller RP-LC retention time Could you answer with the label of the item you picked?
Marked response: b

(P) CCc1ccccc1NC(=O)Cn1c(C)nc2c(sc3nc(-c4ccccc4)ccc32)c1=O
(Q) CCN(CC)CCNC(=O)Cn1nc(-c2ccc(Cl)cc2)ccc1=O
Exam item: Smaller RP-LC retention time value? Options are P and Q Identify your selection by its label.
Marked response: Q
(Q: 624 s, P: 1080 s)

###

assay_explanation: gradient 5% acetonitrile 3 min, to 50% in 2 min, to 85% in 15 min, held 3 min, 100 µL/min
settings: column: Zorbax Extend-C18 2.1 x 50 mm; eluents: water / acetonitrile, 0.1% formic acid
observation_type: RP-LC retention time (s)

Worked examples, 4 compounds total:
{"compound": "CCCN1CCN(C(=O)C2CCN(S(=O)(=O)c3ccc4c(c3)sc(=O)n4C(C)C)CC2)CC1", "measurement_units": "s", "endpoint_result": 665}
{"compound": "CC(C)n1c(=O)n(CC(=O)NC2CCCc3ccccc32)c2cc(S(=O)(=O)N3CCCC3)ccc21 (centres undefined)", "measurement_units": "s", "endpoint_result": 927}
{"compound": "CCCCNC(=O)C1CCCN(c2cc(=O)n(C)c(=O)n2C)C1 (centres undefined)", "measurement_units": "s", "endpoint_result": 641}
{"compound": "COc1cccc(N2CCN(C(=O)C3CCN(c4nccnc4Sc4ccccc4)CC3)CC2)c1", "measurement_units": "s", "endpoint_result": 1070}

(P) COc1ccc(NC(=O)N2CCCC2c2nc(-c3ccccc3OC)no2)cc1Cl (centres undefined)
(Q) COc1ccccc1-c1c(C)nn2c(SCC(=O)NCCN(C)C)cc(C)nc12
Exam item: Could you please tell me which of these two has the higher RP-LC retention time: P or Q ? Please reply using the label of the selected record.
Marked response: P

(a) O=C(Cn1c(=O)c2cccn2c2ccccc21)NCc1cccs1
(b) CC1CCN(c2nn(CC(=O)NCCc3ccc(Cl)cc3)c(=O)c3ccccc23)CC1
Exam item: In the pair a and b , the larger recorded RP-LC retention time belongs to which? Use the label to indicate which entry you chose.
Marked response: b

(a) COCCNc1c(-c2ccccc2)nc2sc(C(=O)N(C)C)c(C)n12
(b) CCn1c(=O)sc2cc(S(=O)(=O)N3CCC(C(=O)Nc4cccc(F)c4)CC3)ccc21
Exam item: Looking only at measured RP-LC retention time, which entry is lower, a or b ? Your answer should be the label of the entry you select.
Marked response: a

(P) CC(C)CNC(=O)c1ccc2c(c1)Sc1ncccc1C(=O)N2C1CC1
(Q) Cc1ccsc1C(=O)Nc1ccccc1Sc1c(C)c(C)nc2nc(-c3ccccc3)nn12
Exam item: Could you tell me which of P and Q has the lower RP-LC retention time reading? Write the label of whichever entry you select.
Marked response: P
(P: 752 s, Q: 1120 s)

(I) O=c1n(Cc2ccc(F)cc2Cl)nc2ccc(S(=O)(=O)N3CCOCC3)cn12
(II) Cc1ccc(-c2noc(-c3cccc(S(=O)(=O)NC4CCCC4)c3)n2)cc1
Exam item: Hi, I'm comparing two records. Which one has the lower RP-LC retention time, I or II ? Answer by quoting the chosen item's label.
Marked response: I

(I) CCc1nc2c(c(=O)n1CC(=O)Nc1ccc(OC)cc1)CN(Cc1ccccc1)CC2
(II) Cc1ccc(N2CC(c3nc(-c4ccc5c(c4)nnn5C4CCCC4)no3)CC2=O)cc1 (centres undefined)
Exam item: Could you tell me which of I and II has the lower RP-LC retention time reading? Refer to your chosen item by its label in the answer.
Marked response: I
